System: PPARg:RXRa 270nM:90nM, anti-RXR (NR concentration 270 nM, RXRa partner concentration 90 nM)
Assay text: PBM binding z-score (relative to random genomic background probes); higher = stronger binding; sequences stand for … in GC…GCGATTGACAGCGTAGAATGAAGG
We use 2 as the dividing line for PBM binding z-score: on or above the line is true (1), below is false (0).

The examples below pair each entry with its known result.
CCTTACGGGTCACTCCAAGTTATAGCATCGGAGT = true (1)
TCTCGGACGACACGAAAGGTCAGAGCTCGACATC = true (1)
TCTTGTAGATCAGCAGCTTAAGAAAGCTGGCCAA = false (0)
TCTCGGAGGACAAGAAGGTCAGAGCTTTCCAGAG = false (0)

Now, please, on to the next sequence.
Decide: is the reported value of PBM binding z-score for CGAACTAGGCCATCCAGGACAGTGAATACATTGA equal to or greater than 2?
false (0)
